experiment.notes: Metabolic stability in human liver microsomes assessed as intrinsic clearance at 20 uM measured upto 120 mins in presence of NADPH by LC-MS/MS analysis
Type: ADME, Microsome
condition.set: read-out: CLH
The reader will find reported microsomal CLint at 20 µM values listed item by item below.
Answer with the value and then the unit.

I have this molecule here, `Cc1cccc2c3c(ccc12)-c1oc2c(c1C(=O)C3=O)CCN(CCO)C2` , and I need its recorded microsomal CLint at 20 µM. 2 µL/min/mg

Please look up its microsomal CLint at 20 µM: `Cc1cccc2c3c(ccc12)-c1oc2c(c1C(=O)C3=O)CCN([C@H](CO)CCCO)C2` 6.2 µL/min/mg

Consider the molecule Cc1coc2c1C(=O)C(=O)c1c-2ccc2c(C)cccc12 [TANSHINONE I] and give its measured microsomal CLint at 20 µM. 290 µL/min/mg

Which microsomal CLint at 20 µM value is on record for `Cc1cccc2c3c(ccc12)-c1oc2c(c1C(=O)C3=O)CCN(CCCN1CCOCC1)C2` ? 1.6 µL/min/mg
